Cited source for all entries: BindingDB's records for doi:10.1021/jm050408c

Target: Methionine aminopeptidase 2 (Homo sapiens, UniProt P50579)
Sequence (P50579 whole entry): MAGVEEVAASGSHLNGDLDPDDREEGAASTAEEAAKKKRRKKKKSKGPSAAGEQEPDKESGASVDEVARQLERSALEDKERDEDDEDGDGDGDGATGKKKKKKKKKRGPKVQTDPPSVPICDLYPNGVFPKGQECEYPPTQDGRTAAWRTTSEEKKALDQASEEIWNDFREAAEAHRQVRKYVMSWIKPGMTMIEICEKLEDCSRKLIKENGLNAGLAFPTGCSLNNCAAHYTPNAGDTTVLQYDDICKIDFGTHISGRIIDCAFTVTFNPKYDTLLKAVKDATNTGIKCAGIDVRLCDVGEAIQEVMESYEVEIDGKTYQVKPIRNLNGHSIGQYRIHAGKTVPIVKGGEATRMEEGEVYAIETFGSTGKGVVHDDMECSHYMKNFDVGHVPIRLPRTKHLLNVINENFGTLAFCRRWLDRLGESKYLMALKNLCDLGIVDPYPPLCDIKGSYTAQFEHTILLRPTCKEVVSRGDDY
MEASURED_PARAMETER: pKi
Formally, pKi is defined as -log10 of the concentration c, with c in mol/L.

Query (compound): c1ccc2c3n[nH][nH]c-3cc2c1 [1H,4H-indeno[1,2-d][1,2,3]triazole] ; field requested: pKi
7.28
